# experiment description: water solubility
# Type: physicochemical
# test context: particularly at physiologic pH
quantity: water solubility

CCCCCCCCCCCCC/C=C/C(O)C(CO)N(C)C (stereo not shown) [DMS, N,N-dimethylsphingosine]; less water soluble
CCCCCCCCCCCCC/C=C/[C@@H](O)[C@@H](N)CO [sphingosine, Sphingosine]; less water soluble
CCCCCCCCCCCCC/C=C/C(O)C(CO)NC (stereo not shown) [MMS, N-monomethylsphingosine]; less water soluble
